Sourced from patent US4210663A

Target: aldose reductase (Bos taurus, UniProt P16116)
Construct: partially purified aldose reductase enzyme obtained from calf lens; from tissue; host or cells: calf lens
Experiment: inhibition of aldose reductase enzyme activity (procedure of U.S. Pat. No. 3,821,383, based on Hayman et al.)
Type: biochemical
Conditions: 10^-4 M; partially purified aldose reductase from calf lens; / = results of duplicate tests
observation_type: inhibition at 100 µM (%)

compound: O=C(O)C1CCSc2ccc(Cl)cc21 (stereo not drawn) [Example 16]
inhibition at 100 µM (%): 70
--
compound: O=C(O)C1CCOc2c(Cl)cc(Cl)cc21 (stereo not drawn) [Example 8]
inhibition at 100 µM (%): 82
--
compound: O=C(O)CC1CCOc2ccc(Cl)cc21 (stereo not drawn) [Example 18]
inhibition at 100 µM (%): 69
--
compound: O=C(O)C1CCOc2c(Cl)cc(-c3ccccc3)cc21 (stereo not drawn) [Example 2]
inhibition at 100 µM (%): 74
--
compound: O=C(O)C1CCOc2ccc(F)cc21 (stereo not drawn) [Example 10]
inhibition at 100 µM (%): 71
--
compound: O=C(O)C1CCOc2c1cc(Cl)c1ccccc21 (stereo not drawn) [Example 14]
inhibition at 100 µM (%): 88
--
compound: O=C(O)C1CCSc2cc(Cl)c(Cl)cc21 (stereo not drawn) [Example 4]
inhibition at 100 µM (%): 92
--
compound: O=C(O)C1CCOc2ccc(Cl)cc21 (stereo not drawn) [Example 12]
inhibition at 100 µM (%): 85
--
compound: Cc1cc(Cl)cc2c1OCCC2C(=O)O (stereo not drawn) [Example 6]
inhibition at 100 µM (%): 87

====

Molecular target: aldose reductase (Bos taurus)
Construct: partially purified aldose reductase enzyme obtained from calf lens; from tissue; host or cells: calf lens
Test: inhibition of aldose reductase enzyme activity (procedure of U.S. Pat. No. 3,821,383, based on Hayman et al.)
Format: biochemical
Settings: partially purified aldose reductase from calf lens, / = results of duplicate tests
observation_type: % Inhibition at 10^-4 M (aldose reductase enzyme activity) (%)

compound: Cc1cc(Cl)cc2c1OCCC2C(=O)O (stereo not drawn) [Example 6]
experimental_target: aldose reductase (Bos taurus)
units: %
quantitative_readout: 89

compound: O=C(O)C1CCOc2ccc(Cl)cc21 (stereo not drawn) [Example 12]
experimental_target: aldose reductase (Bos taurus)
units: %
quantitative_readout: 81

compound: O=C(O)C1CCOc2c1cc(Cl)c1ccccc21 (stereo not drawn) [Example 14]
experimental_target: aldose reductase (Bos taurus)
units: %
quantitative_readout: 90

compound: O=C(O)C1CCSc2cc(Cl)c(Cl)cc21 (stereo not drawn) [Example 4]
experimental_target: aldose reductase (Bos taurus)
units: %
quantitative_readout: 76

compound: O=C(O)C1CCOc2c(Cl)cc(Cl)cc21 (stereo not drawn) [Example 8]
experimental_target: aldose reductase (Bos taurus)
units: %
quantitative_readout: 89

compound: O=C(O)C1CCOc2c(Cl)cc(-c3ccccc3)cc21 (stereo not drawn) [Example 2]
experimental_target: aldose reductase (Bos taurus)
units: %
quantitative_readout: 67
